Test system: Mus musculus
assay-remarks: Anesthetic activity in mouse assessed as onset time
Assay type: functional
measured-metric: Time (s)
Numbers only, in s.

A selection of reference data follows.
CCCOC(=O)Cc1ccc(OCC(=O)N(CC)CC)c(OCC)c1 [AZD-3043]	5.6
CCCOC(=O)Cc1ccc(OCC(=O)N(CC)CC)c(OC)c1 [PROPANIDID]	6.7
CCCOC(=O)Cc1ccc(OCC(=O)N2CCOCC2)c(OCC)c1	6.7
CCOc1cc(CC(=O)OC(C)C)ccc1OCC(=O)N1CCOCC1	7.5
CC(C)c1cccc(C(C)C)c1O [PROPOFOL]	8.1

--- query ---
Task: # Time lookup, item CCOC(=O)Cc1ccc(OCC(=O)N2CCOCC2)c(OCC)c1
Result: 7.6

====

Answer each item with its documented Time.
System: Oryctolagus cuniculus
assay-remarks: Anesthetic activity in rabbit assessed as time duration of loss of righting reflex
Format: functional
Answers are plain numbers, in s.

// worked examples, Time included
CC(C)c1cccc(C(C)C)c1O [PROPOFOL]	326.6
CCOC(=O)Cc1ccc(OCC(=O)N2CCOCC2)c(OCC)c1	197.2
CCCOC(=O)Cc1ccc(OCC(=O)N(CC)CC)c(OC)c1 [PROPANIDID]	265.4
CCCOC(=O)Cc1ccc(OCC(=O)N2CCOCC2)c(OCC)c1	211.4
CCOc1cc(CC(=O)OC(C)C)ccc1OCC(=O)N1CCOCC1	188.6

# next compound below
Task: Entry under review: CCCOC(=O)Cc1ccc(OCC(=O)N(CC)CC)c(OCC)c1 [AZD-3043] . Reported Time?
Result: 221.6

====

Tested on: Rattus norvegicus
assay-remarks: Anesthetic activity in rat assessed as onset time
Assay type: functional
Time under 10 s gets yes (1), anything at or over 10 s gets no (0).

CCCOC(=O)Cc1ccc(OCC(=O)N(CC)CC)c(OCC)c1	no (0)
CCCOC(=O)Cc1ccc(OCC(=O)N(CC)CC)c(OC)c1	no (0)
CCOC(=O)Cc1ccc(OCC(=O)N2CCOCC2)c(OCC)c1	yes (1)
CCCOC(=O)Cc1ccc(OCC(=O)N2CCOCC2)c(OCC)c1	yes (1)

Please look at the following molecule next.
Task: Quick check: does CCOc1cc(CC(=O)OC(C)C)ccc1OCC(=O)N1CCOCC1 have Time under 10 s?
Result: no (0)

====

assay-remarks: Therapeutic index, ratio of LD50 for toxicity in mouse to HD50 for anesthetic activity in mouse assessed as concentration required to induce hypnotic effect
test-settings: read-out: TI
Provide the reported selectivity ratio of each item.

Some solved cases for reference:
CCOc1cc(CC(=O)OC(C)C)ccc1OCC(=O)N1CCN(C(=O)OC(C)(C)C)CC1	7
CCOc1cc(CC(=O)OC(C)C)ccc1OCC(=O)N1CCOCC1	6.5
CCCOC(=O)Cc1ccc(OCC(=O)N2CCN(C(=O)OC(C)(C)C)CC2)c(OCC)c1	7.3
COc1cc(CC(=O)OC(C)C)ccc1OCC(=O)N1CCOCC1	5.9

Parameters: items (list). Returns: selectivity ratio for each item.
1. CCOC(=O)Cc1ccc(OCC(=O)N2CCN(C(=O)OC(C)(C)C)CC2)c(OCC)c1
2. CCOC(=O)Cc1ccc(OCC(=O)N2CCN(C(=O)OC(C)(C)C)CC2)c(OC)c1

Result:
[7.1, 7.3]

====

assay-remarks: Therapeutic index, ratio of LD50 for toxicity in rat to HD50 for anesthetic activity in rat assessed as concentration required to induce hypnotic effect
test-settings: read-out: TI
For each entry below, report its selectivity ratio value.

Worked examples follow.
CCCOC(=O)Cc1ccc(OCC(=O)N2CCOCC2)c(OCC)c1	10.1
CCOC(=O)Cc1ccc(OCC(=O)N2CCOCC2)c(OCC)c1	8.5

Task: // returns reported selectivity ratio for input CCOc1cc(CC(=O)OC(C)C)ccc1OCC(=O)N1CCOCC1
Result: 11.2
